targetEntity: AAV8 (adeno-associated virus serotype 8)
experimentalDetails: SPR, AAV on CM5 chip
parameter: koff (s⁻¹)

binder	parameter	testValue
A4-C1 (VHH) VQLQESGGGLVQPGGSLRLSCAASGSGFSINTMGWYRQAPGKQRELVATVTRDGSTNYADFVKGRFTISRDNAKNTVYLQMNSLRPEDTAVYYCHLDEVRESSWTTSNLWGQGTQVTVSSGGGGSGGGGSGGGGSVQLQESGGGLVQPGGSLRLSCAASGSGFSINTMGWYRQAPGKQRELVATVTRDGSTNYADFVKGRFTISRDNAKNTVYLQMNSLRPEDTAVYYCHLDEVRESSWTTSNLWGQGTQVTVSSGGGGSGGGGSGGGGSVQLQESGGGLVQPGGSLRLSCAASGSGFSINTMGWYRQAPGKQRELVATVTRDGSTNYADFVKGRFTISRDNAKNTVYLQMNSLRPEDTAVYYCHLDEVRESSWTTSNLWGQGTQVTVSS	koff	0.00164
